assay: refractive index (Na D-line) (dimensionless); conditions: 328.15 K; 100 kPa; Liquid; Standard Abbe refractometry
Please provide measured refractive index for the entries that follow.
Enter a number only.

I would be grateful if you could share the reported refractive index for CCCC[N+](CCCC)(CCCC)CCCC.O=S(=O)([O-])CC(O)CN1CCOCC1 [tetrabutylammonium 2-hydroxy-3-morpholinopropanesulfonate] . 1.47693

Please give the result for C[N+](C)(C)CCO.O=S(=O)([O-])CCN(CCO)CCO too. 1.49317

Please give the result for C[N+](C)(C)CCO.O=S(=O)([O-])CC(O)CNC(CO)(CO)CO (centres undefined) too. 1.50884

Please give the result for CCCC[P+](CCCC)(CCCC)CCCC.O=S(=O)([O-])CCN(CCO)CCO too. 1.48744

Please give the result for CCCC[N+](CCCC)(CCCC)CCCC.O=S(=O)([O-])CCN(CCO)CCO too. 1.48052

Please give the result for CCCC[P+](CCCC)(CCCC)CCCC.O=S(=O)([O-])CC(O)CNC1CCCCC1 too. 1.48368

Please give the result for CCCC[N+](CCCC)(CCCC)CCCC.O=S(=O)([O-])CC(O)CNC1CCCCC1 too. 1.47772

Please give the result for C[N+](C)(C)CCO.O=S(=O)([O-])CC(O)CN1CCOCC1 (centres undefined) too. 1.49323

Please give the result for CCCC[P+](CCCC)(CCCC)CCCC.O=S(=O)([O-])CC(O)CN1CCOCC1 [tetrabutylphosphonium 2-hydroxy-3-morpholinopropanesulfonate] too. 1.4841
